- target_of_assay: human HER3 endogenously expressed on human cancer cells (SK-Br-3, BT-474, MCF7) (human, UniProt P21860 20-1342)
- assay_text: cell-based or functional assay
readout: BT-474 proliferation % inhibition (%)
# value in %; strip the unit string

// known answers, use as guide
MOR13657 (antibody, human IgG1, lambda, V domains shown, Tested as IgG) VH: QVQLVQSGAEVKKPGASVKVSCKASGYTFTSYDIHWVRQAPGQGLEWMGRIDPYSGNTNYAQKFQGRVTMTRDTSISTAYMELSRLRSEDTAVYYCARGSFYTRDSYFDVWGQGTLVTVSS VL: DIALTQPASVSGSPGQSITISCTGTSSDVGTYNQVSWYQQHPGKAPKLMIYGVSKRPSGVSNRFSGSKSGNTASLTISGLQAEDEADYYCSARDGWSEYVFGGGTKLTVLG ... 30
MOR12615 (antibody, human IgG1, lambda, V domains shown, Tested as IgG) VH: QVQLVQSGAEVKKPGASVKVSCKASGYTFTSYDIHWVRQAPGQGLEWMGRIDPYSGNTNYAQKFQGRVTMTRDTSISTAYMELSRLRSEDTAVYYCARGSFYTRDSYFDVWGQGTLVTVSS VL: DIALTQPASVSGSPGQSITISCTGTSSDVGTYNQVSWYQQHPGKAPKLMIYGVSKRPSGVSNRFSGSKSGNTASLTISGLQAEDEADYYCSSRDLIGHYVFGGGTKLTVLG ... 35

API: the following record is the query input.
If you can, please state the reported BT-474 proliferation % inhibition value of MOR12606 (antibody, human IgG1, kappa, V domains shown, Tested as IgG) VH: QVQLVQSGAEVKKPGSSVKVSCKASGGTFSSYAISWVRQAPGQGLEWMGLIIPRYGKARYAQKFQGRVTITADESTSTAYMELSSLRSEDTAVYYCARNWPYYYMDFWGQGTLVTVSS VL: DIVLTQSPATLSLSPGERATLSCRASQNIVFNLAWYQQKPGQAPRLLIYDASNRATGVPARFSGSGSGTDFTLTISSLEPEDFAVYYCQQTKSKPSPTFGQGTKVEIKR . 40

Reference for the values: patent US20130251703A1
